Reference source for all entries: the supplement of paper PMC7877785

assay: self-splicing fitness, log relative to wild type (ln ratio); higher = more splicing; Tetrahymena group I intron in knt gene, E. coli kanamycin selection, DiMSum; sequences stand for … in CUCUCU…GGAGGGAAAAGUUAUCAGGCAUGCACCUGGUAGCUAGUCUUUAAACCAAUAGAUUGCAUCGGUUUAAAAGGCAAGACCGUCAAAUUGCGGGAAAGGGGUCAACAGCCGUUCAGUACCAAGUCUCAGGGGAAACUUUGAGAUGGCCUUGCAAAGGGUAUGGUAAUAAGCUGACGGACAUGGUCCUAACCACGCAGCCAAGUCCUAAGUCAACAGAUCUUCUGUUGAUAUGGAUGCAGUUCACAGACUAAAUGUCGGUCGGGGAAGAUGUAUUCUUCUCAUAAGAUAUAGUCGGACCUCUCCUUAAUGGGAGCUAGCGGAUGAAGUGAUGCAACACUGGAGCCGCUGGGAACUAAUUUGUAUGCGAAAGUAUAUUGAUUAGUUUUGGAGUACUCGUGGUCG; details: 30 °C;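 note: selection with 25 µg/mL kanamycin versus none on LB agar overnight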
Reported self-splicing fitness (ln) values follow for various sequences
metric name: self-splicing fitness (ln)

{"polymer sequence": "CUUAAGCAAUAUUACGUGCU", "metric name": "self-splicing fitness (ln)", "data value": -2.16}
{"polymer sequence": "GGACAGCAAUAUUACGAGGA", "metric name": "self-splicing fitness (ln)", "data value": -2.32}
{"polymer sequence": "GCUAAGCAAUAUUACGAAGC", "metric name": "self-splicing fitness (ln)", "data value": -3.24}
{"polymer sequence": "ACGCAGCAAUAUUACGUUUU", "metric name": "self-splicing fitness (ln)", "data value": -3.43}
{"polymer sequence": "GUUAAGCAAUAUUACGGUCA", "metric name": "self-splicing fitness (ln)", "data value": -0.91}
{"polymer sequence": "AAUAAGCAAUAUUACGUUUA", "metric name": "self-splicing fitness (ln)", "data value": -2.05}
{"polymer sequence": "GUGGAGCAAUAUUACGUACU", "metric name": "self-splicing fitness (ln)", "data value": -2.19}
{"polymer sequence": "GCCAAGCAAUAUUACGGUAU", "metric name": "self-splicing fitness (ln)", "data value": -1.62}
{"polymer sequence": "CGGAAGCAAUAUUACGGUUU", "metric name": "self-splicing fitness (ln)", "data value": -4.42}
{"polymer sequence": "UUUUAGCAAUAUUACGGACC", "metric name": "self-splicing fitness (ln)", "data value": -2.44}
{"polymer sequence": "AAUCAGCAAUAUUACGAAAU", "metric name": "self-splicing fitness (ln)", "data value": -0.801}
{"polymer sequence": "GACAAGCAAUAUUACGCCUA", "metric name": "self-splicing fitness (ln)", "data value": -0.964}
{"polymer sequence": "GAAUAGCAAUAUUACGAAGG", "metric name": "self-splicing fitness (ln)", "data value": -2.77}
{"polymer sequence": "UACGAGCAAUAUUACGACGG", "metric name": "self-splicing fitness (ln)", "data value": -2.13}
{"polymer sequence": "CAUUAGCAAUAUUACGAUUG", "metric name": "self-splicing fitness (ln)", "data value": -1.49}
{"polymer sequence": "CACGAGCAAUAUUACGUUAA", "metric name": "self-splicing fitness (ln)", "data value": -3.25}

----------
As shown below, each of these sequences has a reported self-splicing fitness (ln) value.
experiment: self-splicing fitness, log relative to wild type (ln ratio); higher = more splicing; Tetrahymena group I intron in knt gene, E. coli kanamycin selection, DiMSum; sequences stand for … in CUCUCU…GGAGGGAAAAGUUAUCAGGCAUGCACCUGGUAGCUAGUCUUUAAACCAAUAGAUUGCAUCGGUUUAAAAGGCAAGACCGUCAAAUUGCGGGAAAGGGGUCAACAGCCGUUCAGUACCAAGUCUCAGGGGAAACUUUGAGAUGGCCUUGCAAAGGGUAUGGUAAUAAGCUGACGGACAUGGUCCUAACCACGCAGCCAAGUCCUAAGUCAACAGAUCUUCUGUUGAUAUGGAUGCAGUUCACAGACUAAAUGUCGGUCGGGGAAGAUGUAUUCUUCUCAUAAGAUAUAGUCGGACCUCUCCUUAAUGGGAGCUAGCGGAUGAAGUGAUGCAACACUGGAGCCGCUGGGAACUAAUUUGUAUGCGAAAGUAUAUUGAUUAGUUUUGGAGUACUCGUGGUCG; details: 30 °C
metric name: self-splicing fitness (ln)

{"polymer sequence": "ACAGAGCAAUAUUACGAUUG", "metric name": "self-splicing fitness (ln)", "data value": -2.95}
{"polymer sequence": "ACGAAGCAAUAUUACGUCAU", "metric name": "self-splicing fitness (ln)", "data value": -2.99}
{"polymer sequence": "AUUCAGCAAUAUUACGUCCC", "metric name": "self-splicing fitness (ln)", "data value": -1.53}
{"polymer sequence": "AAGCAGCAAUAUUACGUAAU", "metric name": "self-splicing fitness (ln)", "data value": -1.49}
{"polymer sequence": "CUAUAGCAAUAUUACGCAGU", "metric name": "self-splicing fitness (ln)", "data value": -3.51}
{"polymer sequence": "AGAGAGCAAUAUUACGGAUC", "metric name": "self-splicing fitness (ln)", "data value": -3.76}
{"polymer sequence": "CACCAGCAAUAUUACGCAUC", "metric name": "self-splicing fitness (ln)", "data value": -2.88}
{"polymer sequence": "CGGAAGCAAUAUUACGUCGG", "metric name": "self-splicing fitness (ln)", "data value": -0.77}

----------
assay: self-splicing fitness, log relative to wild type (ln ratio); higher = more splicing; Tetrahymena group I intron in knt gene, E. coli kanamycin selection, DiMSum; sequences stand for … in CUCUCU…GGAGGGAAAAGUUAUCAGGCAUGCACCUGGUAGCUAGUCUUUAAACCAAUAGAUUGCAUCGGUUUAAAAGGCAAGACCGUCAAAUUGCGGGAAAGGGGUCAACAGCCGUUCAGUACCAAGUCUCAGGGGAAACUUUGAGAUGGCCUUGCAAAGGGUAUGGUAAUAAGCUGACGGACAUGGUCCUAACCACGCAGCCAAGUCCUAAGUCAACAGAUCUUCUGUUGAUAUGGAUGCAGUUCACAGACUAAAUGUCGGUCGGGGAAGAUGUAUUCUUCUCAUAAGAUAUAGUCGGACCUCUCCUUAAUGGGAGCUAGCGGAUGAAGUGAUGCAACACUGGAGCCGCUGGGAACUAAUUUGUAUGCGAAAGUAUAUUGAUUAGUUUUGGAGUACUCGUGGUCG; settings: 37 °C
Listing of recorded self-splicing fitness (ln) by entry.

{"polymer sequence": "AGUGAGCAAUAUUACGAGUG", "self-splicing fitness (ln)": -1.02}
{"polymer sequence": "AUCAAGCAAUAUUACGCACU", "self-splicing fitness (ln)": 0.0749}
{"polymer sequence": "CAAAAGCAAUAUUACGCUUC", "self-splicing fitness (ln)": -1.99}
{"polymer sequence": "CGGCAGCAAUAUUACGCCGG", "self-splicing fitness (ln)": -2.16}
{"polymer sequence": "GUGGAGCAAUAUUACGAUAC", "self-splicing fitness (ln)": -0.631}
{"polymer sequence": "AUGUAGCAAUAUUACGAGCC", "self-splicing fitness (ln)": -1.05}
{"polymer sequence": "UGUAAGCAAUAUUACGCCCA", "self-splicing fitness (ln)": 0.0098}
{"polymer sequence": "GGAGAGCAAUAUUACGUAUU", "self-splicing fitness (ln)": -1.22}
{"polymer sequence": "GGGCAGCAAUAUUACGAGGU", "self-splicing fitness (ln)": -2.77}
{"polymer sequence": "GUUAAGCAAUAUUACGACAA", "self-splicing fitness (ln)": -1.12}
{"polymer sequence": "AUACAGCAAUAUUACGUUCG", "self-splicing fitness (ln)": -1.15}
{"polymer sequence": "CUCCAGCAAUAUUACGUUAU", "self-splicing fitness (ln)": -3.38}
{"polymer sequence": "CCCCAGCAAUAUUACGGUCU", "self-splicing fitness (ln)": -2.73}
{"polymer sequence": "CGUAAGCAAUAUUACGACAG", "self-splicing fitness (ln)": -0.867}
{"polymer sequence": "GGCUAGCAAUAUUACGAUAU", "self-splicing fitness (ln)": -1.84}
{"polymer sequence": "AAGGAGCAAUAUUACGUACA", "self-splicing fitness (ln)": -2.11}
{"polymer sequence": "UCGGAGCAAUAUUACGUUCG", "self-splicing fitness (ln)": -1.27}
{"polymer sequence": "ACCGAGCAAUAUUACGUUUG", "self-splicing fitness (ln)": -2.19}
{"polymer sequence": "ACCUAGCAAUAUUACGGCGA", "self-splicing fitness (ln)": -0.462}
{"polymer sequence": "GGACAGCAAUAUUACGCGUA", "self-splicing fitness (ln)": -0.68}
{"polymer sequence": "UCUAAGCAAUAUUACGGCCA", "self-splicing fitness (ln)": -1.17}
{"polymer sequence": "UCUCAGCAAUAUUACGUGUG", "self-splicing fitness (ln)": -2.27}
{"polymer sequence": "AUUCAGCAAUAUUACGUCCG", "self-splicing fitness (ln)": -1.33}
{"polymer sequence": "AGGCAGCAAUAUUACGGGUU", "self-splicing fitness (ln)": -1.01}
{"polymer sequence": "CGCAAGCAAUAUUACGAGCU", "self-splicing fitness (ln)": -0.633}
{"polymer sequence": "UUCAAGCAAUAUUACGACGU", "self-splicing fitness (ln)": 0.325}
{"polymer sequence": "AAAUAGCAAUAUUACGAUCU", "self-splicing fitness (ln)": 0.867}
{"polymer sequence": "CGCGAGCAAUAUUACGUCUA", "self-splicing fitness (ln)": -0.973}
{"polymer sequence": "UUAGAGCAAUAUUACGGGAC", "self-splicing fitness (ln)": -2.8}
{"polymer sequence": "CAAAAGCAAUAUUACGACCU", "self-splicing fitness (ln)": -0.569}
{"polymer sequence": "UAUUAGCAAUAUUACGCAUG", "self-splicing fitness (ln)": -0.197}
{"polymer sequence": "GCGGAGCAAUAUUACGGUGU", "self-splicing fitness (ln)": -3.11}
{"polymer sequence": "CGAAAGCAAUAUUACGGCCC", "self-splicing fitness (ln)": -0.196}
{"polymer sequence": "GCAUAGCAAUAUUACGUAAU", "self-splicing fitness (ln)": -0.793}
{"polymer sequence": "GCGGAGCAAUAUUACGGUAU", "self-splicing fitness (ln)": -2.95}
{"polymer sequence": "CUAAAGCAAUAUUACGUUUC", "self-splicing fitness (ln)": -2.69}
{"polymer sequence": "UUCAAGCAAUAUUACGGGGU", "self-splicing fitness (ln)": -3.15}
{"polymer sequence": "GCGGAGCAAUAUUACGGAUC", "self-splicing fitness (ln)": -0.528}
{"polymer sequence": "CCCCAGCAAUAUUACGUCCU", "self-splicing fitness (ln)": -2.14}
{"polymer sequence": "AAGGAGCAAUAUUACGAGGG", "self-splicing fitness (ln)": -2.93}
{"polymer sequence": "UAACAGCAAUAUUACGUGGU", "self-splicing fitness (ln)": -2.93}
{"polymer sequence": "GGAAAGCAAUAUUACGAAAU", "self-splicing fitness (ln)": -1}
{"polymer sequence": "CCAGAGCAAUAUUACGCGAU", "self-splicing fitness (ln)": -2.21}
{"polymer sequence": "GCAGAGCAAUAUUACGAUUG", "self-splicing fitness (ln)": -2.95}
{"polymer sequence": "GAACAGCAAUAUUACGGCGC", "self-splicing fitness (ln)": -0.195}
{"polymer sequence": "UGAAAGCAAUAUUACGAGAU", "self-splicing fitness (ln)": -2.18}
{"polymer sequence": "GCGUAGCAAUAUUACGUCGU", "self-splicing fitness (ln)": -2.04}
{"polymer sequence": "CAGCAGCAAUAUUACGGUUG", "self-splicing fitness (ln)": -2.62}
{"polymer sequence": "AGAGAGCAAUAUUACGUAAU", "self-splicing fitness (ln)": -2.81}
{"polymer sequence": "AUCCAGCAAUAUUACGACCA", "self-splicing fitness (ln)": -0.224}
{"polymer sequence": "AAUGAGCAAUAUUACGAGCG", "self-splicing fitness (ln)": -1.56}
{"polymer sequence": "UAAGAGCAAUAUUACGGGGU", "self-splicing fitness (ln)": -1.44}
{"polymer sequence": "CUGAAGCAAUAUUACGAAUU", "self-splicing fitness (ln)": -1.86}
{"polymer sequence": "GUUAAGCAAUAUUACGGUCA", "self-splicing fitness (ln)": -0.943}
{"polymer sequence": "CGGCAGCAAUAUUACGGUGG", "self-splicing fitness (ln)": -0.157}
{"polymer sequence": "ACAUAGCAAUAUUACGCAUU", "self-splicing fitness (ln)": -2.46}
{"polymer sequence": "AGUCAGCAAUAUUACGUUAG", "self-splicing fitness (ln)": -1.43}
{"polymer sequence": "AGCCAGCAAUAUUACGCGUC", "self-splicing fitness (ln)": -1.23}
{"polymer sequence": "ACUAAGCAAUAUUACGUGGA", "self-splicing fitness (ln)": -1.49}
{"polymer sequence": "CCCAAGCAAUAUUACGAAAU", "self-splicing fitness (ln)": -2.35}
{"polymer sequence": "AACGAGCAAUAUUACGUGCG", "self-splicing fitness (ln)": -1.92}
{"polymer sequence": "AAGGAGCAAUAUUACGGUAC", "self-splicing fitness (ln)": -2.19}
{"polymer sequence": "CACCAGCAAUAUUACGUAGG", "self-splicing fitness (ln)": -0.0785}
{"polymer sequence": "CAUCAGCAAUAUUACGCCUA", "self-splicing fitness (ln)": -1.03}
{"polymer sequence": "AAUAAGCAAUAUUACGAUAC", "self-splicing fitness (ln)": -1.44}
{"polymer sequence": "UCUGAGCAAUAUUACGAGUG", "self-splicing fitness (ln)": -1.24}
{"polymer sequence": "UCCGAGCAAUAUUACGCACA", "self-splicing fitness (ln)": -0.221}
